Value source: FireProtDB (doi:10.1021/bi9929958)

Measured Tm values are reported for all entries that follow.
B1: Superoxide dismutase [Mn], mitochondrial, P04179 (parent)
chain: MLSRAVCGTSRQLAPVLGYLGSRQKHSLPDLPYDYGALEPHINAQIMQLHHSKHHAAYVNNLNVTEEKYQEALAKGDVTAQIALQPALKFNGGGHINHSIFWTNLSPNGGGEPKGELLEAIKRDFGSFDKFKEKLTAASVGVQGSGWGWLGFNKERGHLQIAACPNQDPLQGTTGLIPLLGIDVWEHAYYLQYKNVRPDYLKAIWNVINWENVTERYMACKK

- Variants of: B1
- EXPERIMENTAL_PARAMETERS: Homo sapiens; pH 7.8; Thermal; DSC; Potassium phosphate 20 mM; reversible: yes; structure 1N0J; whole UniProt chain shown

{"MUTATION_LABEL": "Q167S", "Tm / °C": 94.9}
{"MUTATION_LABEL": "Q167H", "Tm / °C": 88.9}
{"MUTATION_LABEL": "Q167V", "Tm / °C": 68.2}
{"MUTATION_LABEL": "Q167A", "Tm / °C": 79.8}
{"MUTATION_LABEL": "Q167E", "Tm / °C": 103}
